Each entry below lists one item and its recorded strep/HRP value.
Target Desc: T1, human CD70, recombinant, N-terminally biotinylated (residues 39-193) (human, UniProt P32970 39-193, N-terminal biotin)
T1 construct: range 39-193; the same entry is used there; also called biotinylated human CD70; CD70 biotin
T1 sequence (looked up): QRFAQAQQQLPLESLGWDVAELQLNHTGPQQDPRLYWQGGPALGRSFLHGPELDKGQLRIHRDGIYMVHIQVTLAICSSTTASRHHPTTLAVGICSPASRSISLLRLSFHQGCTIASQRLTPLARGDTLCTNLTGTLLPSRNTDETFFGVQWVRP
Experiment: CD27 blocking ELISA, 3 µM scFv, strep/HRP
# answer = number (no unit)

{"columns": ["Binder", "strep/HRP"],
 "data": [
  ["60-TC7-VII-C02 (scFv, His-tagged) scFv: QVQLQQWGAGLLKPSETLSLTCAVYGGSFSGYYWSWIRQPPGKGLEWIGEINHSGSTNYNPSLKSRVTISVDTSKNQFSLKLSSVTAADTAVYYCARSPLWFGPPDAFDIWGQGTMVTVSSGGSGGSGGSGGSQSALTQPPSASGSPGQSVSISCTGTSSDVGGYNYVSWYQQHPGKAPKLIIYDVDKRPSGIPERFSGSNSGNTATLTISGTQAMDEADYYCQAWDSSTEVVFGGGTKVTVL", 1.58],
  ["30-TC1.2-I-C08-1 (scFv, His-tagged) scFv: QMQLVQSGAEVKKPGASVKVSCKASGYTFTSYGISWVRQAPGQGLEWMGWINPNTGGTDYAQKFQGRVTITRDTSITTGYMELSRLRSDDTAVYYCARHYYYGMDVWGQGTTVTVSSGGSGGSGGSGGSDIQLTQSPSSLSASVGDRVTITCQASQDISNYLNWYQQKPGKAPKLLIYDASNLETGVPSRFSGSGSGTDFTFTISSLQPEDIATYYCQQYDNLPLTFGGGTKVEIK", 1.5]
]}

Moving on to another binder below.
So what does the record say about strep/HRP for 14-TC4-III-A04 (scFv, His-tagged) scFv: QVQLVQSGAEVKKPGASVKVSCKASGYTFTGYYMNWVRQAPGQGLEWMAWINPNTGDTNYAQKFQGRVTMTRDTSINTAYIELSRLTSDDTAVYYCARVGDYYDRSGYYRHDAFDIWGQGTMVTVSSGGSGGSGGSGGSSSELTQDPAVSVALGQTVRITCQGDSLRSYYASWYQQKPGQAPVLVIYGKNNRPSGIPDRFSGSSSGNTASLTITGAQAEDEADYYCQAWDSSTGVFGGGTKVTVL ?
0.359

Each recorded value in this set is attributed to patent US20240252641A1.
